System: MALME-3M melanoma
METHOD: NCI-60 one-dose screen, 48 h
CONDITION_PARAMETERS: 10 µM unless noted
The panel holds about 83,000 compounds, 20% with a hit somewhere; the sample as a whole holds those more often. The source made the active and inactive calls. The calls were made as follows: active = growth percent below 10; inactive = the rest.
Classes used: active, inactive

>>> discrete_label("COc1cc(/C=C2\\CN(C)C/C(=C\\c3cc(CN4CCOCC4)c(O)c(OC)c3)C2=O)cc(CN2CCOCC2)c1O")
"inactive"
>>> discrete_label("Oc1c(C(Nc2ccccn2)c2cccc(Oc3ccccc3)c2)ccc2cccnc12 (stereo not given)")
"active"
>>> discrete_label("CC(C)CCOc1ccc(-c2n[nH]c(C(F)(F)F)c2-c2cncc(C#N)c2)c(O)c1")
"active"
>>> discrete_label("COc1cc(-c2c3c(c(Br)n2Cc2ccccc2)-c2nc(N)sc2CC3)cc(OC)c1OC")
"inactive"
>>> discrete_label("S=C1CCCC(=S)N1")
"inactive"
>>> discrete_label("COc1ccc(/C=C2\\SC(=Nc3ccccc3)NC2=O)cc1")
"active"
>>> discrete_label("CC[C@@H](C)[C@H](NC(=O)Cn1cc(CNC(=O)[C@@H](NC(=O)OCc2ccccc2)C(C)C)nn1)C(=O)O")
"inactive"
>>> discrete_label("O=c1oc2ccc(I)cc2c(=O)n1-c1ccc(I)cc1F")
"active"
>>> discrete_label("COc1cccc(-c2nn(C)c3sc(C(=O)NCCN4CCN(c5ccccc5F)CC4)cc23)c1")
"active"
>>> discrete_label("CN1C(=O)N(C)C2Nn3c(s/c(=C\\c4ccc(Cl)cc4Cl)c3=O)=NC21 (stereo not given)")
"inactive"
